Lab note: compare melting point against 200 °C. Equal or greater, write y. Smaller, write n.

Consider the following illustrative entries.
| SMILES DATA | CLASS LABEL |
| --- | --- |
| COc1ccc(-c2nc3cc(F)ccc3s2)cc1OC(C)=O | n |
| COc1ccc(-c2nc3cc(F)ccc3s2)cc1OC(=O)c1ccccc1 | n |
| COc1cc(-c2nc3cc(F)ccc3s2)ccc1OC(=O)N1CCOCC1 | n |
| COc1ccc(-c2nc3cc(F)ccc3s2)cc1OC(=O)c1cccc([N+](=O)[O-])c1 | y |

Now let's try a different one.
In plain terms: is recorded melting point at least 200 °C for COc1cc(-c2nc3cc(F)ccc3s2)ccc1O ? n

* * *

Measured melting point accompanies every entry in the list below.
Please state the figure in °C; there is no need to write the unit.

For orientation, consider the following solved cases.
| SMILES DATA | melting point, °C |
| --- | --- |
| COc1cc(OC)cc(-c2nc3cc(F)ccc3s2)c1 | 115 |
| COc1ccc(-c2nc3cc(F)ccc3s2)cc1C | 120 |
| COc1ccc(-c2nc3cc(F)ccc3s2)cc1OC(=O)c1ccccc1Cl | 190 |

Report melting point, nothing else, for this compound: COc1ccc(-c2nc3c(F)cccc3s2)cc1OC 129

For the compound COc1ccc(-c2nc3cc(F)ccc3s2)cc1I , give its reported melting point. 167

Name the recorded melting point of the item CCCC(=O)Oc1cc(-c2nc3cc(F)ccc3s2)ccc1OC in your answer. 125

Return melting point for the following compound: COc1cc(-c2nc3cc(F)ccc3s2)ccc1OC(=O)c1cccc([N+](=O)[O-])c1 190

Indicate its recorded melting point; the compound in question is COc1ccc(-c2nc3cc(F)ccc3s2)cc1OC(=O)c1ccc([N+](=O)[O-])cc1 198

Quickly give me recorded melting point for CCC(=O)Oc1cc(-c2nc3cc(F)ccc3s2)ccc1OC 150

Give me measured melting point, please, for this compound: Oc1ccc(-c2nc3cc(F)ccc3s2)cc1O 197

Answer with reported melting point of COc1ccc(-c2nc3cc(F)ccc3s2)cc1OC(=O)N1CCOCC1 170

* * *

VALUE KIND: melting point

Worked examples follow.
| SMILES DATA | VALUE KIND | MEAS VALUE |
| --- | --- | --- |
| COc1ccc(-c2nc3cc(Br)ccc3s2)cc1OC | melting point | 157 to 158 °C |
| COCOc1ccc(-c2nc3cc(F)ccc3s2)cc1OC | melting point | 101 to 102 °C |
| Fc1ccc2sc(-c3ccc4c(c3)OCO4)nc2c1 | melting point | 161 to 164 °C |
| COc1ccc(-c2nc3ccccc3s2)cc1OC | melting point | 141 to 143 °C |
| COc1ccc(-c2sc3ccc(F)cc3[n+]2[O-])cc1OC | melting point | 201.4 °C |

// next item, melting point requested
Tell me its melting point given CCOc1cc(-c2nc3cc(F)ccc3s2)ccc1OC as the entry. 136 to 139 °C

* * *

The compounds listed here are annotated with their melting point.

// Input: COc1ccc(-c2nc3cc(F)ccc3s2)c(OC)c1OC [Compound 50] . Output its melting point only. 109 to 110 °C

Please list melting point recorded for the compound CCOc1ccc(-c2nc3cc(F)ccc3s2)cc1OCC [Compound 46] 109 to 113 °C

Supply measured melting point of COc1ccc(-c2nc3cc(F)ccc3s2)cc1 [Compound 29] in your reply. 123 to 124 °C

In one line, give reported melting point of the entry COc1ccc(-c2nc3ccc(F)cc3s2)cc1OC [Compound 3] . 153 to 155 °C

Please supply the value of reported melting point for the item COc1ccc(-c2nc3cc(F)ccc3s2)cc1Br [Compound 27] 173 to 175 °C

* * *

VALUE KIND: melting point

Previously resolved entries follow.
| COMPOUND | VALUE KIND | MEAS VALUE |
| --- | --- | --- |
| COc1ccc(-c2nc3cc(Cl)ccc3s2)cc1OC [Compound 23] | melting point | 154 to 155 °C |
| COc1ccc(-c2nc3cc(F)ccc3s2)cc1OC(=O)c1ccccc1Br [Compound 16] | melting point | 220 to 223 °C |
| COc1cc(-c2nc3cc(F)ccc3s2)cc(OC)c1OC [Compound 43] | melting point | 120 to 122 °C |

Please give the documented melting point of COc1ccc(-c2nc3cc(F)ccc3s2)cc1F [Compound 25] 157 to 159 °C

Read off the recorded melting point for COc1ccc(-c2nc3cc(F)ccc3s2)cc1O [Compound 5] 169 to 172 °C
